Measured P.E. binding ELISA OD, listed per entry for reference.
Target: T1, human IL-2Rβ (human, UniProt P14784 27-240, limits assumed)
T1 construct: Recombinant protein, coated (ELISA) or immobilised on CM5 (SPR); also called hu IL-2R; interleukin 2 receptor β-chain
T1 sequence: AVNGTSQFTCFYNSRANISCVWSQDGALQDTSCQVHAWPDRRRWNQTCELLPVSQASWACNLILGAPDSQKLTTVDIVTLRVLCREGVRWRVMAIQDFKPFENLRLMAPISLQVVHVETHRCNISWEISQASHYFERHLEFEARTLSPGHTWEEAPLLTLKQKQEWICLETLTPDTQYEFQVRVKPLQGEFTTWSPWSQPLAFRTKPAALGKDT
Test: P.E. binding ELISA on coated protein
The response must be a number in OD450 nm with no trailing unit.

Lookup: Give the value of P.E. binding ELISA OD reported for the following: FJ1427_P035MP03A10 (VHH, soluble VHH in periplasmic extract; also called clone nr) VHH: QVQLVESGGGLVQAGGSLRLACALSGDVFVRYTMAWFRQAPGKEREFVASVTDSGRTTDYVASVQGRFTVSRDNNKNTVYLQMNSLKPEDTAVYYCAANTDYFQIRSLDRNTWGQGTQVTVSS
Found: 0.983

Lookup: Give the value of P.E. binding ELISA OD reported for the following: FJ1427_P035MP03A04 (VHH, soluble VHH in periplasmic extract; also called clone nr) VHH: EVQLVESGGGSVQTGGSLRLSCVVSGSHFISDVMGWYRQVPGKQRELVADMADGGSVKYGDSVKGRFTILRDSVKNTVTLQMSSLNPEDTGVYYCKAGLWITGRHFDYWGQGTQVTVTS
Found: 0.305

Lookup: Give the value of P.E. binding ELISA OD reported for the following: FJ1427 P035MP03H05 (VHH, soluble VHH in periplasmic extract; also called clone nr) VHH: QLQLVESGGGLVQAGGSLALSCAASGGTFSSYAMGWFRQAPGKEREFVAATTRGGGRTMYAVSTEGRFSCSRDNAKNTVYLLIKNLKPEDTAVYYCAARTSYYDGTYYPASSDFDIWGQGTQVTVSS
Found: 0.316

Lookup: Give the value of P.E. binding ELISA OD reported for the following: FJ1427 P035MP03F07 (VHH, soluble VHH in periplasmic extract; also called clone nr) VHH: QVQLVESGGGLVQAGGSLRLSCAASGRTFSSYVMGWFRQAPGKEREFVVAITGTRRTTDWPDSVKGRFTISRDNAQNTVYLDMNSLKPEDTAVYYCASARGLPVPPLGDIIHWGEGTLVTVSS
Found: 0.156
